# Test system: HPV-16
# assay_summary: qPCR sensitivity against HPV-HNSCC tumor samples diluted among 10 ng normal human DNA
# applied_conditions: Sample # 20
endpoint: Threshold of tumor cell numbers for HPV-16 detection (tumor cells)
API: value field is a number in tumor cells; no unit string.

What measured Threshold of tumor cell numbers for HPV-16 detection goes with BR E1-6: HPV-16 E1 region primer/probe set, SEQ ID NO: 43-45 (nucleic acid, chemistry not given here) DNA 1: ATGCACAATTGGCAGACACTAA DNA 2: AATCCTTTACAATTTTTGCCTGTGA DNA 3: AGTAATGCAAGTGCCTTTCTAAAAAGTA ? 6.0

# repeat for BR E1-4: HPV-16 E1 region primer/probe set, SEQ ID NO: 37-39 (nucleic acid, chemistry not given here) DNA 1: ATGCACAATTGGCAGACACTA DNA 2: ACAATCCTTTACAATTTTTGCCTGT DNA 3: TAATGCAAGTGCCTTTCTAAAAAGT 1.2

Further, for HR E5L2-4: primer/probe set for junction between E5 and L2, SEQ ID NO: 55-57 (same as SEQ ID NO: 4-6) (nucleic acid, chemistry not given here) DNA 1: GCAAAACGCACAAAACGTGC DNA 2: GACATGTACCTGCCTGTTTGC DNA 3: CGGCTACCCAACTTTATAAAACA ? 1.2

Please answer likewise for E6: previously designed (historical) HPV-16 E6 primers and Taqman probe, SEQ ID NO: 7-9, positive control (nucleic acid, Taqman probe, labels not given here) DNA 1: TCAGGACCCACAGGAGCG DNA 2: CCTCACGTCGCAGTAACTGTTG DNA 3: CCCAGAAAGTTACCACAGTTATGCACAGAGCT 0.5
